This section lists pIC50 readings for PI3Kα (Homo sapiens, UniProt P42336).
Formally, pIC50 is defined as -log10 of the concentration c, with c in mol/L.

Past entries and their recorded results:
>>> value_measured("CC(=O)Nc1nc(-c2ccncc2)c2cc(-c3cnc(Cl)c(NS(=O)(=O)c4ccccc4)c3)ccc2n1 [Example 6]")
8.85
>>> value_measured("COc1ccc(Nc2ncnc3ccc(-c4cncc(NS(=O)(=O)c5ccc(F)cc5F)c4)cc23)cc1Cl [Example 73]")
8.60

# next molecule below
# query: pIC50 of entry CN(C)S(=O)(=O)c1cc(-c2ccc3nc(NCCO)nc(-c4ccncc4)c3c2)cnc1N [Example 1]
8.10

Reference source for all entries: patent US20090018131A1
